- targetDesc: T1, hIL-18BP-hFc (human, UniProt O95998 31-194, limits assumed)
- T1 sequence (looked up): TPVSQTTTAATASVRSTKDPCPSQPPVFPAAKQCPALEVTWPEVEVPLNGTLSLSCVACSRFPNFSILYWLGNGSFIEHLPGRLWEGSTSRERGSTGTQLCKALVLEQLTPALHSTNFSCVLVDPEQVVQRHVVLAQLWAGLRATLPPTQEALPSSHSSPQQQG
- assayText: cell-based or functional assay
Consider the following binders; for each one, report its EC50 Fold Change (+BP/-BP), hIL-18 reporter assay.
Quick note: number first, unit second.

Name the recorded EC50 Fold Change (+BP/-BP), hIL-18 reporter assay for IL-18 variant polypeptide M24 (ligand) YFPKLRSKLSVIRNLNDQVLFIDQGNRPLFEDMTDSDCRDNAPRTIFIISMYKYSTSRGMAVTISVKCEKISTLSCENKIISFKEMNPPDNIKDTKSDIIFFQRSVPGHDNKMQFESSSYEGYFLACEKERDLFKLILKKEDELGDRSIMFTVQNED .
2.01 fold

Also, IL-18 variant polypeptide M33 (ligand) YFEKLHSKLSVIRNLNDQVLFIDQGNRPLFEDMTDSDCRDNAPRTIFIISMYKRSTHRGMAVTISVKCEKISTLSCENKIISFKEMNPPDNIKDTKSDIIFFQRSVPGHDNKMQFESSSYEGYFLACEKERDLFKLILKKEDELGDRSIMFTVQNED please.
0.58 fold

Also, IL-18 variant polypeptide M9 (ligand) YFPKLRSKLSVIRNLNDQVLFIDQGNRPLFEDMTDSDCRDNAPRTIFIISMYKWSRARGMAVTISVKCEKISTLSCENKIISFKEMNPPDSIKDTKSDIIFFQSSVPGHDNKMQFESSSYEGYFLACEKERDLFKLILKKEDELGDRSIMFTVQNED please.
0.77 fold
